Data origin, for the record: patent US6057371A

# assayed.system: sigma receptor
# measurement.notes: Sigma receptor binding, [^3 H]DTG, brain membranes (both sigma-1 and sigma-2 sites)
# Parameters: species or system guinea pig
# experimental.setup: Table 6; [^3 H]DTG
# label = YES if IC50 < 100 nM else NO

molecule: CN(CCCCCc1ccccc1)CCCc1ccccc1 [Compound 136]
assayed.system: sigma receptor
classification: YES

Hello, I'm reviewing records and need to know if IC50 of c1ccc2cc(CCCNCCCc3ccc4ccccc4c3)ccc2c1 [Compound 70, Di-[3-(2'-Naphthyl)propyl)amine] is below 100 nM. Could you check?
NO

Hello, I'm reviewing records and need to know if IC50 of CN1CCC(O)(c2ccccc2)CC1 [Compound 155] is below 100 nM. Could you check?
NO

Hello, I'm reviewing records and need to know if IC50 of C(/C=C/c1ccc2c(c1)OCO2)=C\CN1CCCCC1 [Compound 191] is below 100 nM. Could you check?
YES

Hello, I'm reviewing records and need to know if IC50 of CN(CCCc1ccc2ccccc2c1)CCCc1ccc2ccccc2c1 [Compound 74] is below 100 nM. Could you check?
YES

###

# assayed.system: sigma-2 binding site (Cavia porcellus, UniProt H0V073)
# Construct: Guinea pig whole membrane preparations (P2 microsomal fraction); from tissue; host or cells: guinea pig membranes (P2 microsomal fraction), as described by Weber et al; brain inferred from the sister test b489
# measurement.notes: biochemical
# Design: species or system guinea pig
# experimental.setup: Table 10; read-out: SIGMA-2 KI vs. 3H-DTG + PENTAZOCINE MEAN
Entries and their Ki values follow.
Unit nM implied. Number only.

Completed entries (count: 3):
compound: c1ccc(CCCCCNCCc2ccccc2)cc1
Ki, nM: 14.6

compound: Clc1cccc(N2CCN(CCc3ccccc3)CC2)c1
Ki, nM: 42.4

compound: O=C(c1ccccc1)N1CCN(CCCCc2ccccc2)CC1
Ki, nM: 965

Now look at this entry.
Request: Ki, test system sigma-2 binding site (Cavia porcellus, UniProt H0V073), entry CC(Cc1ccc(Br)cc1)NCCCc1ccccc1 (racemic)
39.1

###

Entries and their pKi values follow.
# assayed.system: sigma-1 binding site (Cavia porcellus, UniProt Q60492)
# Construct: Guinea pig whole membrane preparations (P2 microsomal fraction); from tissue; host or cells: guinea pig membranes (P2 microsomal fraction), as described by Weber et al; brain inferred from the sister test b489
# Sequence (Q60492 whole entry): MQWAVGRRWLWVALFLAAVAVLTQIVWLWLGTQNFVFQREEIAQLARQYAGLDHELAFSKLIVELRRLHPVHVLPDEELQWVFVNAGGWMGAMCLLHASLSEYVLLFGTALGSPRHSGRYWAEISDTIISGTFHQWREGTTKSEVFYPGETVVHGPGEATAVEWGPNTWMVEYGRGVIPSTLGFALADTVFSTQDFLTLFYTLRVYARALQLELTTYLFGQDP
# measurement.notes: biochemical
# Parameters: species or system guinea pig
# experimental.setup: SIGMA-1 KI vs. 3H-PENTAZOCINE MEAN
Field pKi (float): negative decimal logarithm of the concentration in molar.

Completed entries (count: 7):
molecule: CCCN1CCC[C@H](c2cccc(O)c2)C1 [(+)3-PPP, reference compound]
pKi: 7.32

molecule: CCN1CCC[C@H]1CNC(=O)c1c(OC)ccc(Br)c1OC [Remoxipride, reference compound]
pKi: 6.51

molecule: CN1CCN(CCCN2c3ccccc3Sc3ccc(C(F)(F)F)cc32)CC1 [Trifluperizine, reference compound]
pKi: 6.25

molecule: CC(C)N(CCNC(=O)CN1CCCC1=O)C(C)C [Pramiracetam, reference compound]
pKi: 5.00

molecule: CN(C)CCCN1c2ccccc2Sc2ccc(Cl)cc21 [Chlorpromazine, reference compound]
pKi: 6.47

molecule: CCCN1CCC[C@@H](c2cccc(O)c2)C1 [(-)3-PPP, reference compound]
pKi: 6.51

molecule: O=C(CCCN1CCC2(CC1)C(=O)NCN2c1ccccc1)c1ccc(F)cc1 [Spiperone, reference compound]
pKi: 5.00

Now look at this entry.
Any idea what pKi was measured for OCCN1CCN(CCCN2c3ccccc3Sc3ccc(Cl)cc32)CC1 [Perphenazine, reference compound] ?
7.60

###

# assayed.system: sigma-2 binding site (Cavia porcellus)
# Construct: Guinea pig whole membrane preparations (P2 microsomal fraction); from tissue; host or cells: guinea pig membranes (P2 microsomal fraction), as described by Weber et al; brain inferred from the sister test b489
# measurement.notes: biochemical
# Design: species or system guinea pig
# experimental.setup: Table 10; read-out: SIGMA-2 KI vs. 3H-DTG + PENTAZOCINE MEAN
recorded.metric: Ki (nM)
Unit nM implied. Number only.

Completed entries (count: 5):
compound: CN1CCN(CCCCc2ccccc2)CC1
measurement.units: nM
Ki: 899
--
compound: c1ccc2cc(N3CCNCC3)ccc2c1
measurement.units: nM
Ki: 5600
--
compound: c1ccc(CCCCCCCNCc2ccccc2)cc1
measurement.units: nM
Ki: 38.5
--
compound: CN(CCCc1ccc2ccccc2c1)CCCc1ccc2ccccc2c1
measurement.units: nM
Ki: 461
--
compound: CCC(Cc1ccccc1)NCCCCc1ccccc1 (centres unmarked)
measurement.units: nM
Ki: 104

Request: Ki, test system sigma-2 binding site (Cavia porcellus), entry `c1ccc(CCCCCN2CCCCC2)cc1`
49.9

Request: Ki, test system sigma-2 binding site (Cavia porcellus), entry `c1ccc2cc(CCCNCCCc3ccc4ccccc4c3)ccc2c1`
10000

Request: Ki, test system sigma-2 binding site (Cavia porcellus), entry `c1ccc(CCCCCN2CCC(Cc3ccccc3)CC2)cc1`
2.78

###

# assayed.system: sigma-1 binding site (Cavia porcellus)
# Construct: Guinea pig whole membrane preparations (P2 microsomal fraction); from tissue; host or cells: guinea pig membranes (P2 microsomal fraction), as described by Weber et al; brain inferred from the sister test b489
# measurement.notes: biochemical
# Design: species or system guinea pig
# experimental.setup: Table 10; read-out: SIGMA-1 KI vs. 3H-PENTAZOCINE MEAN
recorded.metric: Ki (nM)
Unit nM implied. Number only.

Request: Ki, test system sigma-1 binding site (Cavia porcellus), entry `CN(C)CCCCCc1ccccc1`
10.4

###

# assayed.system: sigma-1 binding site (Cavia porcellus, UniProt Q60492)
# Construct: Guinea pig whole membrane preparations (P2 microsomal fraction); from tissue; host or cells: guinea pig membranes (P2 microsomal fraction), as described by Weber et al; brain inferred from the sister test b489
# measurement.notes: biochemical
# Design: species or system guinea pig
# experimental.setup: Example 8; read-out: sigma-1 IC50, text
recorded.metric: pIC50
Field pIC50 (float): negative decimal logarithm of the concentration in molar.

Any idea what pIC50 was measured for `CCCN(C)CCCCCc1ccccc1` ?
9.54

###

Entries and their log10 Ki values follow.
# assayed.system: sigma receptor
# measurement.notes: Sigma receptor binding, [^3 H]DTG, brain membranes (both sigma-1 and sigma-2 sites)
# Design: species or system guinea pig
# experimental.setup: Table 7; Phenyl-(CH2)x -NH--(CH2)y -Phenyl; read-out: Ki
Note: values are log10 of Ki expressed in nM.

Completed entries (count: 5):
structure.smiles.string: c1ccc(CCCCCNCCCc2ccccc2)cc1
log10 Ki: 0.26
--
structure.smiles.string: c1ccc(CCCCCCCNCc2ccccc2)cc1
log10 Ki: 0.56
--
structure.smiles.string: c1ccc(CCCCCNCCCCc2ccccc2)cc1
log10 Ki: 0.40
--
structure.smiles.string: c1ccc(CCCCCNCc2ccccc2)cc1
log10 Ki: 0.30
--
structure.smiles.string: c1ccc(CCCNCCCc2ccccc2)cc1
log10 Ki: 1.15

Any idea what log10 Ki was measured for `c1ccc(CNCc2ccccc2)cc1` ?
2.24

Any idea what log10 Ki was measured for `c1ccc(CCCCNCc2ccccc2)cc1` ?
1.11

Any idea what log10 Ki was measured for `c1ccc(CCCCNCCCc2ccccc2)cc1` ?
0.85

###

Entries and their IC50 values follow.
# assayed.system: sigma receptor
# measurement.notes: Sigma receptor binding, [^3 H]DTG, brain membranes (both sigma-1 and sigma-2 sites)
# Parameters: species or system guinea pig
# experimental.setup: Table 6; [^3 H]DTG
Counter-ions that a name gives are not always drawn.
Unit nM implied. Number only.

compound: c1ccc(CCCCN2CCN(Cc3ccccc3)CC2)cc1
IC50 [nM]: 2.25
--
compound: COc1ccc(CCCCCN2CCC(c3ccccc3)CC2)cc1
IC50 [nM]: 1.27
--
compound: c1cnc(N2CCNCC2)nc1
IC50 [nM]: 10000
--
compound: c1ccc(CCCNCCc2ccccc2)cc1
IC50 [nM]: 21.8
--
compound: CCCCCCN(C)CCC [Compound 131, Oxalate]
IC50 [nM]: 46.9

Any idea what IC50 was measured for `c1ccc(CCCCNCCCCc2ccccc2)cc1` ?
6.98

Any idea what IC50 was measured for `O=C(CCCCN1CCCCC1)c1ccc(Cl)cc1` ?
1.3

Any idea what IC50 was measured for `c1ccc(CCCCCN2CCCCC2)cc1` ?
2.05

Any idea what IC50 was measured for `O=C(CCCCN1CCCCC1)C1CCCC1` ?
13.5

Any idea what IC50 was measured for `CC(C)CCN(C)[C@@H](C)Cc1ccccc1` ?
3.04

###

# assayed.system: sigma-2 binding site (Cavia porcellus)
# Construct: Guinea pig whole membrane preparations (P2 microsomal fraction); from tissue; host or cells: guinea pig membranes (P2 microsomal fraction), as described by Weber et al; brain inferred from the sister test b489
# Sequence (H0V073 1-176): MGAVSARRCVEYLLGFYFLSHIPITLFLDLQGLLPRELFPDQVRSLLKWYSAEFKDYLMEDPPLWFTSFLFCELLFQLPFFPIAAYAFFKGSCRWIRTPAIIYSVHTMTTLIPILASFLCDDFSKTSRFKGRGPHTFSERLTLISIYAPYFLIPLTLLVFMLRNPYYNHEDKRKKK
# measurement.notes: biochemical
# Parameters: species or system guinea pig
# experimental.setup: Table 10; read-out: SIGMA-2 KI vs. 3H-DTG + PENTAZOCINE MEAN
Entries and their Ki values follow.
Unit nM implied. Number only.

structure.smiles.string: CN1CCN(CC/C=C\c2cccc(C(F)(F)F)c2)CC1
assayed.system: sigma-2 binding site (Cavia porcellus)
Ki / nM: 177

structure.smiles.string: CN(CCCCCc1ccccc1)Cc1ccccc1
assayed.system: sigma-2 binding site (Cavia porcellus)
Ki / nM: 12.5

structure.smiles.string: CNCCCCCC1CCCCC1
assayed.system: sigma-2 binding site (Cavia porcellus)
Ki / nM: 346

Any idea what Ki was measured for `c1ccc(CCCCCNCc2ccccc2)cc1` ?
34.3
